Origin of values: patent EP2599480A1

biological target: NA of influenza virus A/PR/8/34 (Influenza A virus); assay: biochemical; set-up: species or system H1N1 influenza virus A/Puerto Rico/8/34; settings: read-out: IC50 for A/PR/8/34
Sequence (P03468 whole entry, looked up): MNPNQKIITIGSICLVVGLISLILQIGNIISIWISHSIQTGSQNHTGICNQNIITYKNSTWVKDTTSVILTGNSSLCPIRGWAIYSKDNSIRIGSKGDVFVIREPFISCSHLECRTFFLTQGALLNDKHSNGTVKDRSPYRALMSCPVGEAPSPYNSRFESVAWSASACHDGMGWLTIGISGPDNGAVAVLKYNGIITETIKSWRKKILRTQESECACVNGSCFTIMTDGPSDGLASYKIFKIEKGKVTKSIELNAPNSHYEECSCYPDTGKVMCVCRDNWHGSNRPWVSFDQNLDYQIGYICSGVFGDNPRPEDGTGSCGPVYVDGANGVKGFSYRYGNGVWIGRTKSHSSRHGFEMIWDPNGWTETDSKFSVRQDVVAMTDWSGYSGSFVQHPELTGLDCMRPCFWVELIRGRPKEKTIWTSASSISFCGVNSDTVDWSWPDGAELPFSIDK
measurement_type: IC50 (nM)
# value in nM; strip the unit string

Notebook: pull reported IC50 for NA of influenza virus A/PR/8/34 (Influenza A virus), entry CC1NOC(NS(=O)(=O)c2ccc(N=Nc3c(O)c(C(=O)O)cc4ccccc34)cc2)C1C (stereo not shown) [NCI compound 134132]
640

----------
test system: NA of influenza virus A/Jena/5555/09; assay type: biochemical, clinical H1N1 isolate A/Jena/5555/09
Catalogue of pIC50 readings, one per entry.
Formally, pIC50 is defined as -log10 of the concentration c, with c in mol/L.

Use these answered entries as a reference point.
O=S(=O)(O)c1ccc2cc(N=Nc3cc(S(=O)(=O)O)c4cccnc4c3O)ccc2c1 :: 5.81
CN(C)c1ccc(C=Nc2cc(S(=O)(=O)O)cc3cc(S(=O)(=O)O)cc(O)c23)cc1 :: 6.03
O=C(O)c1cc2ccccc2c(N=Nc2ccc(S(=O)(=O)O)cc2)c1O :: 5.54
O=S(=O)(O)c1ccc2c(N=Nc3ccc(N=Nc4ccccc4)cc3)c(O)ccc2c1 :: 6.62

The record that follows has no pIC50 shown yet.
Can you share its pIC50? I mean this compound: `O=C(O)c1cc2ccccc2c(N=Nc2ccc(S(=O)(=O)Nc3nccs3)cc2)c1O`
6.51
